SUBJECT_OF_TEST: purified HLA DRB1*0401 (Homo sapiens, UniProt P01903+P01911, A100K/A169T/F76Y/I96L/K127E/L162R/M171V/N62H/P40V/Q125Y/R42H/S133A/S149N/S66Y/V115G/V209L/W38E)
Construct: purified from EBV transformed homozygous cell lines or single MHC allele transfected 721.221, C1R, or fibroblast lines; made in house
TEST_PROTOCOL: HLA-DR radioligand binding inhibition assay, DRB1*0401
EXPERIMENTAL_PARAMETERS: IC50 nM purified HLA DRB1 *0401, purified HLA DRB1*0401
Ends that are not written are not given here.
The entries below are paired with their reported IC50.
Express the result in nM but write the number alone.

KELAVFREKVTEQHR [Peptide 9019.0186]    28
LPRVGCPALPLPPPP [Peptide 9019.0173]    6540
ELPLQALVMGEGTCE [Peptide 9019.0182]    6780

# sequence TMNMLGGGGSAGRKP [Peptide 9019.0184] ; its IC50 = 791

----------
SUBJECT_OF_TEST: purified HLA DRB4*0101 (Homo sapiens, UniProt P01903+P13762, G164S)
Construct: purified from EBV transformed homozygous cell lines or single MHC allele transfected 721.221, C1R, or fibroblast lines; made in house
TEST_PROTOCOL: HLA-DR radioligand binding inhibition assay, DRB4*0101
EXPERIMENTAL_PARAMETERS: IC50 nM purified HLA DRB4 *0101, purified HLA DRB4*0101
OBSERVABLE: IC50
Express your answer as a number followed by its unit.

# compound CC(C)C[C@H](NC(=O)[C@@H](NC(=O)[C@@H](NC(=O)[C@@H]1CCCN1C(=O)[C@H](CC(=O)O)NC(=O)[C@H](CO)NC(=O)[C@H](CCCNC(=N)N)NC(=O)[C@H](CC(N)=O)NC(=O)[C@H](C)NC(=O)[C@H](CO)NC(=O)[C@@H](NC(=O)[C@H](CO)NC(=O)[C@H](CC(N)=O)NC(=O)[C@@H](N)CCC(N)=O)C(C)C)C(C)C)[C@@H](C)O)C(=O)N[C@@H](CC(=O)O)C(=O)O [Peptide 9019.0136] ; its IC50 = 2100 nM

----------
SUBJECT_OF_TEST: purified HLA DRB1*1302 (Homo sapiens, UniProt P01903+P01911, A100E/A169T/K41T/L162R/M171V/P40S/Q125H/Q178H/Q39Y/Q99D/R42S/S66N/T262R/V115G/W38E/Y61H)
Construct: purified from EBV transformed homozygous cell lines or single MHC allele transfected 721.221, C1R, or fibroblast lines; made in house
TEST_PROTOCOL: HLA-DR radioligand binding inhibition assay, DRB1*1302
The entries below are paired with their reported IC50.

Check out these entries, answers already filled in.
CC[C@H](C)[C@H](NC(=O)[C@H](CCCNC(=N)N)NC(=O)CNC(=O)[C@H](CCCNC(=N)N)NC(=O)[C@@H](NC(=O)[C@@H](NC(=O)[C@H](CCC(N)=O)NC(=O)[C@H](CC(C)C)NC(=O)[C@@H](N)CC(N)=O)C(C)C)[C@@H](C)CC)C(=O)N[C@@H](CC(C)C)C(=O)N[C@@H](Cc1c[nH]cn1)C(=O)N[C@@H](CC(N)=O)C(=O)NCC(=O)N[C@@H](C)C(=O)N[C@@H](Cc1ccc(O)cc1)C(=O)O [Peptide 9019.0053]    9.9 nM
CC[C@H](C)[C@H](NC(=O)[C@H](CC(C)C)NC(=O)[C@H](C)NC(=O)[C@@H](NC(=O)CNC(=O)[C@@H](NC(=O)[C@H](CC(C)C)NC(=O)[C@@H](NC(=O)CNC(=O)[C@@H](NC(=O)[C@H](CCSC)NC(=O)[C@@H](NC(=O)CNC(=O)[C@@H](NC(=O)[C@@H](N)[C@@H](C)O)C(C)C)[C@@H](C)CC)[C@@H](C)CC)C(C)C)C(C)C)C(C)C)C(=O)O [Peptide 1622.05]    5640 nM
CC[C@H](C)[C@H](NC(=O)[C@H](Cc1ccccc1)NC(=O)[C@H](CC(=O)O)NC(=O)[C@H](Cc1c[nH]cn1)NC(=O)[C@@H]1CCCN1)C(=O)N[C@@H](CCC(=O)O)C(=O)N[C@@H](Cc1c[nH]cn1)C(=O)N[C@@H](Cc1ccccc1)C(=O)N[C@@H](CC(C)C)C(=O)N[C@@H](CO)C(=O)N[C@@H](CCCCN)C(=O)N[C@@H](CCSC)C(=O)N1CCC[C@H]1C(=O)N[C@@H](CCC(=O)O)C(=O)N[C@@H](C)C(=O)O [Peptide 9019.0166]    820 nM
CC(C)C[C@H](NC(=O)[C@H](CCC(=O)O)NC(=O)[C@H](CCCNC(=N)N)NC(=O)[C@H](CC(C)C)NC(=O)CNC(=O)CNC(=O)[C@@H]1CCCN1C(=O)[C@H](CO)NC(=O)[C@H](C)NC(=O)CNC(=O)[C@@H](NC(=O)[C@@H](NC(=O)[C@@H]1CCCN1C(=O)[C@@H](NC(=O)[C@@H](N)[C@@H](C)O)[C@@H](C)O)C(C)C)[C@@H](C)O)C(=O)O [Peptide 9019.0037]    605 nM
CC[C@H](C)[C@H](N)C(=O)N[C@@H](CO)C(=O)N[C@@H](C)C(=O)N[C@H](C(=O)N[C@H](C(=O)NCC(=O)N[C@H](C(=O)N[C@@H](CC(C)C)C(=O)N[C@@H](CC(C)C)C(=O)N[C@H](C(=O)N[C@H](C(=O)N[C@H](C(=O)N[C@@H](CC(C)C)C(=O)NCC(=O)N[C@H](C(=O)O)C(C)C)C(C)C)C(C)C)C(C)C)[C@@H](C)CC)C(C)C)C(C)C [Peptide 9019.0067]    443 nM

# molecule CC[C@H](C)[C@H](NC(=O)[C@H](CCCCN)NC(=O)[C@@H](NC(=O)[C@H](Cc1c[nH]cn1)NC(=O)[C@H](CC(N)=O)NC(=O)[C@@H]1CCCN1C(=O)[C@H](CO)NC(=O)[C@H](CCCCN)NC(=O)[C@@H](NC(=O)[C@H](CC(C)C)NC(=O)[C@@H](NC(=O)[C@H](CC(N)=O)NC(=O)[C@H](CCCNC(=N)N)NC(=O)[C@H](C)N)C(C)C)C(C)C)C(C)C)C(=O)N[C@H](C(=O)O)[C@@H](C)O ; its IC50 = 15 nM

# molecule CSCC[C@H](NC(=O)[C@H](CCC(N)=O)NC(=O)[C@H](CC(C)C)NC(=O)[C@H](CC(C)C)NC(=O)[C@H](CCC(=O)O)NC(=O)[C@H](CCC(=O)O)NC(=O)[C@@H]1CCCN1)C(=O)N[C@@H](CCC(=O)O)C(=O)N[C@@H](CC(C)C)C(=O)N[C@@H](CC(C)C)C(=O)N[C@@H](CC(C)C)C(=O)N[C@H](C(=O)N[C@@H](CC(N)=O)C(=O)N[C@@H](CCCCN)C(=O)N[C@@H](CC(C)C)C(=O)O)C(C)C [Peptide 9019.0161] ; its IC50 = 44 nM

# molecule CC[C@H](C)[C@H](NC(=O)[C@H](CS)NC(=O)[C@H](CC(C)C)NC(=O)[C@H](CCCCN)NC(=O)[C@H](CCC(=O)O)NC(=O)[C@H](C)NC(=O)[C@@H](NC(=O)[C@H](CC(C)C)NC(=O)[C@@H]1CCCN1C(=O)[C@@H](NC(=O)[C@@H](N)[C@@H](C)O)[C@@H](C)CC)[C@@H](C)O)C(=O)N[C@@H](Cc1ccc(O)cc1)C(=O)N[C@H](C(=O)N[C@@H](CC(=O)O)C(=O)N[C@@H](CC(N)=O)C(=O)O)[C@@H](C)O [Peptide 1622.01] ; its IC50 = > 20000 nM

----------
SUBJECT_OF_TEST: purified HLA DRB4*0101 (Homo sapiens, UniProt P01903+P13762, G164S)
Construct: purified from EBV transformed homozygous cell lines or single MHC allele transfected 721.221, C1R, or fibroblast lines; made in house
TEST_PROTOCOL: HLA-DR radioligand binding inhibition assay, DRB4*0101
EXPERIMENTAL_PARAMETERS: IC50 nM purified HLA DRB4 *0101, purified HLA DRB4*0101
Description: Instead, wells of an opaque white 96-well Optiplate (Packard) are coated with 3 μg (100 μl@ 30 μg/ml) of HLA-specific antibody (Ab) that “capture” complexes of radiolabeled MHC and unlabeled peptide transferred from the molecular binding assay plate in 100 μl of 0.05% NP40/PBS. […] Captured complexes are then measured on a microplate scintillation and luminescence counter (TopCount NXTTM; Packard). […]
Ends that are not written are not given here.
OBSERVABLE: IC50 (nM)
Express the result in nM but write the number alone.

# sequence ILLVVVLGVVFGILI [Peptide 9019.0068] ; its IC50 = 11000
